- Tested on: UDH-1 (environmental isolate, S. saprophyticus)
- test details: MIC by broth microdilution
- Assay type: cell-based
- condition set: UDH-1
parameter measured: times lower than MIC of ciprofloxacin

Some solved cases for reference:
[
  {
    "compound": "COC(=O)CC1COc2c(cc3c4c2CCCN4CCC3)-c2c(NC(C)(C)C)n3c(-c4ccc(Br)cc4)csc3[n+]21 (stereo not shown)",
    "times lower than MIC of ciprofloxacin": "approximately 10 times"
  },
  {
    "compound": "COC(=O)CC1COc2c(cc3c4c2CCCN4CCC3)-c2c(NC(C)(C)C)n3c(-c4cccc5c4OCO5)c(C)sc3[n+]21 (stereo not shown)",
    "times lower than MIC of ciprofloxacin": "approximately 10 times"
  },
  {
    "compound": "CCN(CC)c1ccc2c(c1)OCC(CC(=O)OC)[n+]1c-2c(NC(C)(C)C)n2c(-c3ccc(OC)cc3)c(-c3ccc(OC)cc3)sc21 (stereo not shown)",
    "times lower than MIC of ciprofloxacin": "approximately 10 times"
  },
  {
    "compound": "COC(=O)CC1COc2c(cc3c4c2CCCN4CCC3)-c2c(NC(C)(C)C)n3c(-c4ccc(Br)cc4)c(C)sc3[n+]21 (stereo not shown)",
    "times lower than MIC of ciprofloxacin": "approximately 10 times"
  },
  {
    "compound": "COC(=O)CC1COc2c(cc3c4c2CCCN4CCC3)-c2c(NC(C)(C)C)n3c(-c4ccc(Cl)cc4Cl)c(C)sc3[n+]21 (stereo not shown)",
    "times lower than MIC of ciprofloxacin": "approximately 10 times"
  },
  {
    "compound": "COC(=O)CC1COc2c(cc3c4c2CCCN4CCC3)-c2c(NC(C)(C)C)n3c(-c4cc(OC)ccc4OC)csc3[n+]21 (stereo not shown)",
    "times lower than MIC of ciprofloxacin": "approximately 10 times"
  }
]

Return reported times lower than MIC of ciprofloxacin; argument: COC(=O)CC1COc2c(cc3c4c2CCCN4CCC3)-c2c(NC(C)(C)C)n3c(-c4ccccc4)c(-c4ccccc4)sc3[n+]21 (stereo not shown)
approximately 10 times

----------
- Tested on: UDH-2 (environmental isolate, S. saprophyticus)
- test details: MIC by broth microdilution
- Type: cell-based
- condition set: Staphylococcus saprophyticus
parameter measured: MIC (µg/mL)

Some solved cases for reference:
[
  {
    "molecule": "COC(=O)CC1COc2c(cc3c4c2CCCN4CCC3)-c2c(NC(C)(C)C)n3c(-c4ccc(F)cc4)c(C)sc3[n+]21 (centres unmarked)",
    "observed value": 12.5
  },
  {
    "molecule": "COC(=O)CC1COc2c(cc3c4c2CCCN4CCC3)-c2c(NC(C)(C)C)n3c(-c4ccc(Br)cc4)csc3[n+]21 (centres unmarked)",
    "observed value": 6.25
  },
  {
    "molecule": "COC(=O)CC1COc2c(cc3c4c2CCCN4CCC3)-c2c(NC(C)(C)C)n3c(-c4ccc(F)c(F)c4)csc3[n+]21 (centres unmarked)",
    "observed value": 25
  },
  {
    "molecule": "COC(=O)CC1COc2c(cc3c4c2CCCN4CCC3)-c2c(NC(C)(C)C)n3c(-c4ccccc4)c(-c4ccccc4)sc3[n+]21 (centres unmarked)",
    "observed value": 6.25
  },
  {
    "molecule": "COC(=O)CC1COc2c(cc3c4c2CCCN4CCC3)-c2c(NC(C)(C)C)n3c(-c4ccc(Br)cc4)c(C)sc3[n+]21 (centres unmarked)",
    "observed value": 6.25
  },
  {
    "molecule": "COC(=O)CC1COc2c(cc3c4c2CCCN4CCC3)-c2c(NC(C)(C)C)n3c(-c4ccc(Cl)cc4Cl)c(C)sc3[n+]21 (centres unmarked)",
    "observed value": 6.25
  }
]

[I] COC(=O)CC1COc2c(cc3c4c2CCCN4CCC3)-c2c(NC(C)(C)C)n3c(-c4cccc5c4OCO5)c(C)sc3[n+]21 (centres unmarked)
[II] CCOC(=O)c1sc2n(c(NC(C)(C)C)c3[n+]2C(CC(=O)OC)COc2c-3cc3c4c2CCCN4CCC3)c1-c1ccccc1 (centres unmarked)
[III] COC(=O)CC1COc2c(cc3c4c2CCCN4CCC3)-c2c(N)n3c(-c4ccc(F)cc4)c(C)sc3[n+]21 (centres unmarked)
Thanks in advance: please rank these 3 entries by MIC, highest to lowest. Please list the labels in the order you were asked to rank them.
II, III, I

[I] COC(=O)CC1COc2c(cc3c4c2CCCN4CCC3)-c2c(NC(C)(C)C)n3c(-c4ccc(NC(C)=O)cc4)csc3[n+]21 (centres unmarked)
[II] CCN(CC)c1ccc2c(c1)OCC(CC(=O)OC)[n+]1c-2c(NC(C)(C)C)n2c(-c3ccc(OC)cc3)c(-c3ccc(OC)cc3)sc21 (centres unmarked)
Hi team, can someone confirm which has the larger MIC: I or II ? Thanks. Answer format: the label of the selected item.
I
(I: 25 µg/mL, II: 6.25 µg/mL)

Values from patent US10526343B2
